PROCEDURE_TEXT: qHTS for Inhibitors of human tyrosyl-DNA phosphodiesterase 1 (TDP1): qHTS in cells in absence of CPT; further: nearly all actives have a fitted effect of over 55% in size
MEASUREMENT_SETUP: DT40 Tdp1-/- hTDP1 cells, no CPT, ATP luminescence, 48 h
Out of some 420,000 compounds screened, about 64,000 (15%) were called active. Inconclusive results (about 27%) are left out. The call rests on the fitted dose curve; in most records, active means well fitted inhibition curve with a large enough effect; inconclusive means small, poorly fitted or top-dose-only effect; inactive means flat fitted curve, though single readings scatter. Not all results are given here.
Log the outcome using a class from active, inactive

Before answering, review these 5 worked examples.
[[record]]
compound = "CCOc1ccccc1C1CC(c2cccc(NS(C)(=O)=O)c2)=NN1C(=O)c1ccccc1 (stereo unspecified)"
cat = "inactive"

[[record]]
compound = "COc1ccc(-c2cc(-c3ccccc3)nc3c2COc2ccc(Cl)cc2-3)cc1"
cat = "inactive"

[[record]]
compound = "Cc1ccc(C(=O)N2CCN(C(=O)N3CCOCC3)CC2)cc1"
cat = "inactive"

[[record]]
compound = "O=C(CNC(=O)c1ccccc1F)c1ccc(Br)cc1"
cat = "inactive"

[[record]]
compound = "N#CC1=C(N)N(c2ccccc2)C2=C(C(=O)CCC2)C1c1ccccc1 (stereo unspecified)"
cat = "inactive"


Query :: In this assay, the call recorded for C=CCn1c(SCC(=O)NCCCO)nc2sc3c(c2c1=O)CCC3 was what?
Result :: inactive

Query :: In this assay, the call recorded for N#C/C=C(/c1ccc(F)cc1)N1CCOCC1 was what?
Result :: inactive

Query :: In this assay, the call recorded for O=CNc1cc(-c2ccc(C(=O)N3CCOCC3)cc2)cn2c(-c3ccc(F)cc3)cnc12 was what?
Result :: active

Query :: In this assay, the call recorded for CC1(C)OC(=O)C(=CSc2ccc(C(C)(C)C)cc2)C(=O)O1 was what?
Result :: inactive

Query :: In this assay, the call recorded for Cc1c(NC(=O)Nc2ccc(F)c(Cl)c2)c(=O)n(-c2ccccc2)n1C was what?
Result :: inactive

Query :: In this assay, the call recorded for C=CCn1c(SCC(=O)NCC2CCCO2)nc2sc(C)c(C)c2c1=O (stereo unspecified) was what?
Result :: inactive

Just for reference, PubChem BioAssay AID686978 is where these values come from.
